Values from the supplement of paper PMC10724198

- Tested on: Saccharomyces cerevisiae
- PROCEDURE_DETAILS: protein stability index of tFT-peptide fusion (C-terminal peptide) (PSI (0-1 scale)); higher = more stable (slower turnover)
- TEST_SETTINGS: genetic background: wild type; temperature: 37 C
MEASURED_ATTRIBUTE: protein stability index

    sequence_record  data_value
 0     VFWISRLYLASY        0.52
 1     STNMDNRIRTLA       0.556
 2     DLRRYRTLIPCK       0.481
 3     VLRLVLFVLISV       0.352
 4     FGALVVCFLTRC       0.481
 5     KCVVMFFLRSVS       0.598
 6     PHLDLYRLSALI        0.57
 7     VVPWLGYVSCFS       0.503
 8     YSMLGKLVRLVT       0.374
 9     SLVPSIFLFRIF       0.467
10     FSCSRNVLVTVV       0.256
11     YPSCPINFICLC       0.499
12     REGDLLKFKMRP       0.703
13     FVLWYFCCVGCM       0.342
14     PHPPRPPCPPIL       0.699
15     SIFLCRLQNLLI       0.407
16     LLFLLSPFNFAV       0.524
17     RIHRRLIKNKRV       0.377
18     VSGITLPFLMFH       0.426

====

Quick reference for protein stability index among some sequences
- Test system: Saccharomyces cerevisiae
- PROCEDURE_DETAILS: protein stability index of tFT-peptide fusion (C-terminal peptide) (PSI (0-1 scale)); higher = more stable (slower turnover)
- TEST_SETTINGS: genetic background: wild type; temperature: 37 C
MEASURED_ATTRIBUTE: protein stability index

In [3]: df
Out[3]:
    sequence_record  data_value
 0     RGCLVHSGFFIV       0.499
 1     FLLYRFSLVGCF       0.189
 2     AFYLCLYFMPVS        0.52
 3     LCVVFCIRTYRV       0.471
 4     LWFVIYLLCFFV       0.452
 5     NFCVLLQFCVLV       0.448
 6     RVFGWIEVEVEG       0.584
 7     GKGVFGGLFFLV       0.465
 8     VRLYLRSCVVES       0.415
 9     LFLSAFFYLLVW       0.308
10     LSPLSPLLFRLI       0.375
11     IQICLNRLRLFH       0.573
12     LGSYIFVVVIYF       0.253
13     VCSCLVLVFCCC       0.285
14     YARFWYSKAFIC       0.169
15     SMPWFWFVRGIG       0.519
16     YVVYLQVCWMRS       0.186
17     CVCLWCFLVWAR       0.436
18     VVRYGGVIAFRG       0.684

====

- Tested on: Saccharomyces cerevisiae
- PROCEDURE_DETAILS: protein stability index of tFT-peptide fusion (C-terminal peptide) (PSI (0-1 scale)); higher = more stable (slower turnover)
- TEST_SETTINGS: genetic background: wild type; temperature: 30 C
Would you please tag the item label 1 when its protein stability index is 0.7 or above, and label 0 when it is below?

>>> print(df.to_string())
    sequence_record    label
 0     FDMYACCQRGAV  label 0
 1     RVGHGHRSPTRV  label 0
 2     LANGACLLRLNF  label 0
 3     DKMLDIETNNKH  label 0
 4     SAPFGFLFFARL  label 1
 5     KMGKIQKVKGIK  label 1
 6     AEYSTAYRLGIC  label 0
 7     SVPPPPLARALL  label 1
 8     CWYVCSFWPYVV  label 0
 9     NFSLFVHFLGLC  label 0
10     SCVNGYSVCMCW  label 0
11     TPPFPSPLPPPS  label 1
12     DGCVTVDIRRGV  label 1
13     YSASPLSCICPP  label 0
14     RYPPVQPRRAQR  label 0
15     NGISQWMGIGGQ  label 0
16     TLCLPPPVAWQH  label 0
17     RALPPPLCPPPH  label 0
18     SLLFPPSPPPPA  label 0
19     NGSIENIAKRKK  label 0
20     SVESAVRALQPT  label 1
21     WLSMLLTVAPHH  label 0
22     LKKKSHRIKRSI  label 0
23     FVGVGLVRVVGW  label 0
24     KKKKAKKIKKQK  label 0
25     VLRCIWLCFLSV  label 0
26     VVAFSLLSGFLV  label 0
27     PLSRPFSPSLPL  label 0
28     SISQSSSLGLED  label 0
29     WSSRGAIDSARH  label 1
30     VRLYLRSCVVES  label 0
31     FVWWFFFLSVVS  label 0
32     TRERRQAAGGGT  label 0
33     STQIRQILERKC  label 0
34     KIIGVRLKFDRS  label 1
35     IKRLKEVARHVS  label 0
36     FSFVVRMFFRIL  label 0
37     QRRRYKHEIKRM  label 0
38     EGLCFLICKERS  label 1
39     MVVILLVHWEYV  label 0
40     KHVRIEVITERN  label 0
41     VGAGGAWSGCGP  label 0
42     FFVMVFTVEVFV  label 0
43     PPGSPPGSLRPT  label 1
44     IKGSLILRGRGE  label 0
45     YGIILPIRVSGF  label 0
46     VVLGFGPRFRVV  label 0
47     GICLVLVSDIWI  label 0
48     PPPLCSTCIRCC  label 0
49     WVGGDINFWWGG  label 1
50     LCPTGAPLYFSL  label 0
51     FPPVPLVTDTFT  label 0
52     AGRVCTRGVNEI  label 1
53     ERPRRDTTVSDT  label 0

====

- Test system: Saccharomyces cerevisiae
- PROCEDURE_DETAILS: protein stability index of tFT-peptide fusion (C-terminal peptide) (PSI (0-1 scale)); higher = more stable (slower turnover)
- TEST_SETTINGS: genetic background: wild type; temperature: 30 C
# binarize protein stability index: threshold 0.7 inclusive, high side Fulfilled, low side Not fulfilled

In [3]: df
Out[3]:
    sequence_record          label
 0     WGWGGGRDGCGV  Not fulfilled
 1     SSPRRRLHSLSL      Fulfilled
 2     GHWTRRPSVKGK  Not fulfilled
 3     GVTLKSPTGRVF  Not fulfilled
 4     PAPGLTPAGRAP      Fulfilled
 5     PPLLPRPPPLSP  Not fulfilled
 6     PTQPVPPRTPHY  Not fulfilled
 7     VALPVGQKLRTR  Not fulfilled
 8     SPVLSPHSRSSF  Not fulfilled
 9     SLLPSSFRAPAP  Not fulfilled
10     PLVPPESPRSQV  Not fulfilled
11     YWAPYVWMFGFR  Not fulfilled

====

Reported values of protein stability index for individual entries
- Tested on: Saccharomyces cerevisiae
- PROCEDURE_DETAILS: protein stability index of tFT-peptide fusion (C-terminal peptide) (PSI (0-1 scale)); higher = more stable (slower turnover)
- TEST_SETTINGS: genetic background: das1 deletion; temperature: 30 C
MEASURED_ATTRIBUTE: protein stability index

>>> print(df.to_string())
                            sequence_record       measured_attribute  data_value
0      GAAIAGAAAMLL [TIR3 C-terminal 12 aa]  protein stability index       0.718
1      TCEKSKCNCEKC [CRS5 C-terminal 12 aa]  protein stability index       0.682
2      RKYPNQCGTISN [EXG1 C-terminal 12 aa]  protein stability index       0.712
3  FLWEMFELKLYL [YMR119W-A C-terminal 12 aa]  protein stability index       0.707
4   WNCFLSMRNASK [YOR292C C-terminal 12 aa]  protein stability index       0.693
5      SSSSLYTESPIR [IGO1 C-terminal 12 aa]  protein stability index       0.701
